# tested.system: XIAP BIR3 domain (Homo sapiens, UniProt P98170)
# Construct: fluorescent probe 4 and the XIAP BIR3 domain (Sino Biological, Beijing, China) were used for all measurements; purchased Sino Biological, Beijing, China
# Sequence (P98170 252-356 limits assumed): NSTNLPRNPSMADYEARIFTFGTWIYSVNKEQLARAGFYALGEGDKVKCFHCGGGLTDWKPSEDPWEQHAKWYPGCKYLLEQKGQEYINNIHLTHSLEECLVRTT
# method.notes: Fluorescence polarization inhibition (competition) assay
# Format: binding
# run.conditions: 0.5 h; antagonist 50 µM; inhibition of protein-probe interaction

# compound, tested.system, inhibition at 50 µM (%)
records = [
    ("CN[C@@H](C)C(=O)N[C@H](C(=O)N1CCC[C@H]1C(=O)NC(CC(C)C)P(=O)(Oc1ccccc1)Oc1ccccc1)C1CCCCC1 (stereo partly drawn) [Compound 38]", "XIAP BIR3 domain (Homo sapiens, UniProt P98170)", 84.2),
    ("CN[C@@H](C)C(=O)N[C@H](C(=O)N1CCC[C@H]1C(=O)NC(Cc1ccccc1)P(=O)(c1ccccc1)c1ccccc1)C(C)C (stereo partly drawn) [Compound 13]", "XIAP BIR3 domain (Homo sapiens, UniProt P98170)", 100),
    ("CCc1ccc(OP(=O)(Oc2ccc(CC)cc2)C(C)NC(=O)[C@@H]2CCCN2C(=O)[C@@H](NC(=O)[C@H](C)NC)C2CCCCC2)cc1 (stereo partly drawn) [Compound 24]", "XIAP BIR3 domain (Homo sapiens, UniProt P98170)", 74.1),
    ("CN[C@@H](C)C(=O)N[C@H](C(=O)N1CCC[C@H]1C(=O)NCP(=O)(C(C)C)C(C)C)C1CCCCC1 [Compound 8]", "XIAP BIR3 domain (Homo sapiens, UniProt P98170)", 41.3),
    ("CN[C@@H](C)C(=O)N[C@H](C(=O)N1CCC[C@H]1C(=O)NC(Cc1ccccc1)P(=O)(c1ccccc1)c1ccccc1)C1CCCCC1 (stereo partly drawn) [Compound 14]", "XIAP BIR3 domain (Homo sapiens, UniProt P98170)", 100),
    ("CN[C@@H](C)C(=O)N[C@H](C(=O)N1CCC[C@H]1C(=O)NCP(=O)(c1ccc(C)cc1)c1ccc(C)cc1)C1CCCCC1 [Compound 16]", "XIAP BIR3 domain (Homo sapiens, UniProt P98170)", 57),
    ("CN[C@@H](C)C(=O)N[C@H](C(=O)N1CCC[C@H]1C(=O)NC(Cc1ccccc1)P(=O)(Oc1ccccc1)Oc1ccccc1)C(C)C (stereo partly drawn) [Compound 41]", "XIAP BIR3 domain (Homo sapiens, UniProt P98170)", 100),
    ("CN[C@@H](C)C(=O)N[C@H](C(=O)N1CCC[C@H]1C(=O)NC(C)P(=O)(Oc1ccc(C(C)(C)C)cc1)Oc1ccc(C(C)(C)C)cc1)C(C)C (stereo partly drawn) [Compound 27]", "XIAP BIR3 domain (Homo sapiens, UniProt P98170)", 83.3),
    ("CCc1ccc(OP(=O)(Oc2ccc(CC)cc2)C(C)NC(=O)[C@@H]2CCCN2C(=O)[C@@H](NC(=O)[C@H](C)NC)C(C)C)cc1 (stereo partly drawn) [Compound 23]", "XIAP BIR3 domain (Homo sapiens, UniProt P98170)", 64.1),
    ("CN[C@@H](C)C(=O)N[C@H](C(=O)N1CCC[C@H]1C(=O)NCP(=O)(c1cc(C)cc(C)c1)c1cc(C)cc(C)c1)C1CCCCC1 [Compound 21]", "XIAP BIR3 domain (Homo sapiens, UniProt P98170)", 74.4),
    ("CN[C@@H](C)C(=O)N[C@H](C(=O)N1CCC[C@H]1C(=O)NC(CCc1ccccc1)P(=O)(Oc1ccccc1)Oc1ccccc1)C1CCCCC1 (stereo partly drawn) [Compound 44]", "XIAP BIR3 domain (Homo sapiens, UniProt P98170)", 86.5),
    ("CN[C@@H](C)C(=O)N[C@H](C(=O)N1CCC[C@H]1C(=O)NC(Cc1ccccc1)P(=O)(Oc1ccccc1)Oc1ccccc1)C1CCCCC1 (stereo partly drawn) [Compound 42]", "XIAP BIR3 domain (Homo sapiens, UniProt P98170)", 100),
]
